Data origin, for the record: PubChem BioAssay (NCI)

Test system: A498 renal
Assay: NCI-60 one-dose screen, 48 h (100 = growth as untreated, 0 = no growth, -100 = all killed)
Details: 10 µM unless noted
Compounds without any hit were thinned out: in the full panel of roughly 83,000, 20% have a hit.
readout: growth (%)
Answers are plain numbers, in %.

Worked examples, 5 molecules total:
## Input Output measured growth for this item: O=C1CCCc2nc3sc4c(=O)n(-c5ccccc5Cl)nnc4c3cc21
## Output 95.5

## Input Supply measured growth of COc1ccc(Nc2ncccc2NC(=O)c2cn(Cc3cccc(Oc4ccccc4)c3)nn2)cc1OC in your reply.
## Output 69.6

## Input # return recorded growth for input CC(C)[C@@]12C[C@@H](OC(=O)COC(=O)c3ccccc3)[C@@](C)(O1)[C@@H]1CC[C@@H](C)[C@H]1[C@@H]2OC(=O)/C=C/c1ccccc1
## Output -76.6

## Input Let me know recorded growth for CC(=O)Nc1c(Cl)cc(Cl)c2c1Cc1cc([N+](=O)[O-])ccc1-2 , thanks.
## Output 102

## Input Please look at this molecule and report its growth: Cc1ccc(-c2nc(C(Cl)Cl)nc3cc(C)nn23)cc1
## Output -2.75

Please look at the items below and tell me growth for each one, in order.
1. COc1ccc(C2=CN3CC=CCC3CC2=O)cc1 (centres undefined)
2. CC1(C)OC(=O)C(=Cc2cccc(Br)c2)C(=O)O1
3. Cc1ccc(/C=C/C(=O)c2ccc(NC(=O)CSc3nc4c([nH]3)c(=O)n(C)c(=O)n4C)cc2)c(C)c1
4. O=C(Nc1cccnc1Nc1ccc(Cl)cc1)c1cn(Cc2ccc(F)cc2)nn1

## Output
1. 93.7
2. 94.2
3. 40.2
4. 88.6

----------
Test system: DU-145 prostate
Assay: NCI-60 one-dose screen, 48 h (100 = growth as untreated, 0 = no growth, -100 = all killed)
Details: 10 µM unless noted
Experimental: Cells are grown in 96 well plates and exposed to the test compound for 48 hours. Compounds are tested at a single concentration, which is 10^-5 M for most compounds. The reported endpoint is percent growth (GI% or GIPRCNT), where numbers from 0 - 100% represent growth inhibition, and numbers from -100% - 0 represent cell death. For example, a value of 40 represents 60% growth inhibition. A value of 0 means no net growth occurred over the course of the experiment. […]
This is part of a sample that, as a whole, favours compounds with a hit. Of some 83,000 tested, about 20% had one in any assay.
Exercise: state measured growth for each of the compounds provided.
One number for each entry, in %.

## Input Determine from records and report growth for O=C(Nc1ncc(Cc2ccccc2Cl)s1)c1cccs1
## Output 82.6

## Input State, in one line, measured growth of O=C(c1ccc(Cl)cc1Cl)N1c2ccccc2Sc2ccccc21
## Output 65.2

## Input Give the reported growth for this compound. Cc1[nH]c(/C=C/C(=O)c2ccc(C(F)(F)F)c(F)c2)c(C)c1C(=O)NCC(C)C
## Output 101

## Input For the compound Cc1ccc(/C=C/C(=O)c2ccc(NC(=O)CSc3nc4c([nH]3)c(=O)n(C)c(=O)n4C)cc2)c(C)c1 , give its measured growth value.
## Output 40.1

## Input // Input: O=C1C(Cl)=C(NCCN2CCOCC2)C(=O)c2ncccc21 . Output its growth only.
## Output -88.5

## Input Identify measured growth corresponding to CN1CCN(CCOc2ccc(-c3cnc4c(-c5ccc(C(F)(F)F)cc5)cnn4c3)cc2)CC1
## Output 40.7

State recorded growth for all listed compounds.
1. COc1ccc(Cc2cnc(NC(=O)c3sc4ccccc4c3Cl)s2)cc1
2. O=C(Nc1ccccc1O)c1ccccc1Nc1ccnc(C(F)(F)F)c1

## Output
25
104

Batch lookup, growth per entry.
1. O=C1/C(=C/c2cccc([N+](=O)[O-])c2)COc2ccc(O)cc21
2. CNC(=O)c1cc(Oc2ccc3nc(NC(=O)Nc4ccc(Cl)c(Cl)c4)sc3c2)ccn1
3. O=C(N=Nc1c(O)[nH]c2ccccc12)Nc1ccc(Cl)cc1
4. CCn1cc(C(=O)NN=C2CCCCCC2)c(=O)c2ccc(C)nc21
5. CCN(CC)CCN(CCN(CC)CC)c1ccccc1

## Output
1: 81.8; 2: 35.3; 3: 108; 4: 89.2; 5: 109

Could you tell me growth for each of these compounds? They are listed below.
1. COc1ccc(C2=NN(C(=O)c3cc(OC)c(OC)c(OC)c3)C(c3ccc(N(C)C)cc3)C2)cc1 (stereo unspecified)
2. COc1cccc(/C=C/C(=O)c2cc3c(N)c(C(=O)Nc4ccccc4C)sc3nc2C)c1
3. CCc1ccc(CCC(=O)Nc2ncc(Cc3ccc(Cl)cc3)s2)o1
4. C/C(C=O)=C\c1ccc2c(c1)OCO2
5. C=C1C(=O)O[C@H]2[C@H]1CC/C(COC(=O)NCc1ccc(Cn3c(=O)sn(-c4ccc(OC)cc4)c3=O)cc1)=C\CC[C@@]1(C)O[C@@H]21
6. O=C(NCc1ccccc1O)c1cccc2ccccc12
7. CCOC(=O)NN1CC(O)=C(c2nc(-c3ccc(Br)cc3)cs2)C1=N
8. COc1cc2c(c(OC)c1OC)C(=O)N[C@@H]1[C@@H](O)[C@@H](O)[C@H](O)C[C@@H]21

## Output
1. 10.7
2. 8.15
3. 14.4
4. 108
5. 27
6. 95.6
7. 105
8. 110
